targetSystem: intestinal alkaline phosphatase (Mus musculus)
runDescription: mouse IAP inhibition by analogs – biochemical, luminescence, set 2, SAR follow-up (AID 588647)
recordedConditions: purified mouse IAP, luminescent substrate read-out
The source made the active and inactive calls. The rule behind the calls is not given here.
# valid calls are y for active, n for inactive; nothing else

>>> class("O=C(CCNS(=O)(=O)c1ccc2[nH]c(=O)oc2c1)NCCc1ccc(O)cc1")
"n"
>>> class("Cc1ccc(C)c(NC(=O)CCNS(=O)(=O)c2ccc3ccccc3c2)c1")
"y"
>>> class("COc1cc(C(=O)N/N=C/c2c(F)cccc2Cl)cc(OC)c1OC")
"n"

Query block: Which outcome did this test record for the compound O=C(NCc1ccc(F)cc1)C1CCCN(S(=O)(=O)c2ccc3[nH]c(=O)oc3c2)C1 (stereo not drawn) ?
Result block: n

Query block: Do the same for CCOc1cc(C(=O)N/N=C/c2ccccc2F)cc(OCC)c1OCC please
Result block: n

Query block: Please do the same for COc1cc(/C=N/NC(=O)c2cc(O)c(O)c(O)c2)ccc1O as well.
Result block: y

Query block: Now the same for COc1cccc(CNS(=O)(=O)c2ccc3[nH]c(=O)oc3c2)c1
Result block: y

Query block: Please give the result for O=C(CCS(=O)(=O)Nc1ccc2[nH]c(=O)oc2c1)NCc1ccccc1Cl too.
Result block: y

Query block: Next compound: O=C(CCNS(=O)(=O)c1ccc2[nH]c(=O)oc2c1)NCc1cccc(C(F)(F)F)c1
Result block: y

Query block: Moving on to the next compound: CCc1ccc(NC(=O)C2CCCN(S(=O)(=O)c3ccc4c(c3)oc(=O)n4C)C2)cc1 (stereo not drawn)
Result block: n

Query block: Entry to check: O=c1[nH]c2ccc(S(=O)(=O)NCc3ccc4c(c3)OCO4)cc2o1
Result block: n

Query block: Next up: CCOc1cc(C(=O)N/N=C/c2c(F)cccc2Cl)cc(OCC)c1OCC
Result block: n

Query block: Lookup COc1ccc(/C=N/NC(=O)c2cc(O)c(O)c(O)c2)c(OC)c1
Result block: y

Query block: Moving on to O=C(N/N=C/c1ccc(F)cc1F)c1ccc(O)cc1
Result block: n

====

targetSystem: intestinal alkaline phosphatase (Mus musculus)
runDescription: mouse IAP inhibition by analogs – biochemical, luminescence, set 2, SAR follow-up (AID 588647)
recordedConditions: purified mouse IAP, luminescent substrate read-out
Calls of active or inactive are those of the source. No rule for the calls is given here.
Use one of these outcomes when replying: yes (active), no (inactive)

Solved cases below.
>>> class("O=C(CCNS(=O)(=O)c1ccc2[nH]c(=O)oc2c1)NCc1ccccc1Cl")
"no"
>>> class("Cc1ccc(C)c(NC(=O)CCNS(=O)(=O)c2ccc3[nH]c(=O)oc3c2)c1")
"yes"

Now consider a different molecule.
Query block: Just curious, what result did COc1ccc(/C=N/NC(=O)c2cc(O)c(O)c(O)c2)cc1OC get here?
Result block: no

====

targetSystem: intestinal alkaline phosphatase (Mus musculus)
runDescription: mouse IAP inhibition by analogs – biochemical, luminescence, set 2, SAR follow-up (AID 588647)
recordedConditions: purified mouse IAP, luminescent substrate read-out
Activity calls are given as the source filed them. No rule for the calls is given here.
Pick one and only one: active, inactive

Completed entries (count: 5):
>>> class("Cc1ccc(CNC(=O)C2CCCN(S(=O)(=O)c3ccc4[nH]c(=O)oc4c3)C2)cc1 (centres undefined)")
"inactive"
>>> class("O=C(N/N=C/c1c(Cl)cccc1Cl)c1cc(O)c(O)c(O)c1")
"active"
>>> class("O=C(NN=Cc1ccccc1F)c1ccc(O)cc1")
"inactive"
>>> class("Cc1ccc(C)c(NC(=O)CCNS(=O)(=O)c2ccc3c(c2)CCC3)c1")
"inactive"
>>> class("CCOc1ccc(CNC(=O)C2CCCN(S(=O)(=O)c3ccc4[nH]c(=O)oc4c3)C2)cc1OC (centres undefined)")
"inactive"

Query block: Assay outcome for COc1ccc(/C=N\NC(=O)c2cc(O)c(O)c(O)c2)cc1CN1CCN(c2ccc(F)cc2)CC1 : what was it?
Result block: active

Query block: Please answer likewise for O=C(CCS(=O)(=O)Nc1ccc2[nH]c(=O)oc2c1)NCc1cccc(F)c1
Result block: active

Query block: Then what about the molecule Cc1ccc(CNC(=O)CCNS(=O)(=O)c2ccc3[nH]c(=O)oc3c2)cc1 ?
Result block: active

Query block: Same lookup for COc1ccc(CNS(=O)(=O)c2ccc3[nH]c(=O)oc3c2)c(OC)c1 , please.
Result block: active

Query block: Entry O=C(CCNS(=O)(=O)c1ccc2[nH]c(=O)oc2c1)NCc1cccc(Cl)c1 please
Result block: inactive

Query block: Next molecule up: O=C(CNS(=O)(=O)c1ccc2[nH]c(=O)oc2c1)NCCc1ccc2c(c1)OCO2
Result block: inactive

====

targetSystem: intestinal alkaline phosphatase (Mus musculus)
runDescription: mouse IAP inhibition by analogs – biochemical, luminescence, set 2, SAR follow-up (AID 588647)
recordedConditions: purified mouse IAP, luminescent substrate read-out
Activity calls are given as the source filed them. How the calls were made is not given here.
Please state which outcome applies, choosing from True (active), False (inactive)

>>> class("CC(C)Oc1ccc(CNC(=O)C2CCCN(S(=O)(=O)c3ccc4[nH]c(=O)oc4c3)C2)cc1 (stereo not drawn)")
"False"

Query block: Recorded call for O=C(CCNS(=O)(=O)c1ccc2ccccc2c1)NCCc1ccc2c(c1)OCO2 ?
Result block: False

Query block: Try COc1ccc(CNC(=O)CCNS(=O)(=O)c2ccc3c(c2)CCC3)c(OC)c1 next.
Result block: False

Query block: Now the molecule Cc1ccc(NC(=O)CCNS(=O)(=O)c2ccc3c(c2)oc(=O)n3C)cc1C
Result block: False

====

targetSystem: intestinal alkaline phosphatase (Mus musculus)
runDescription: mouse IAP inhibition by analogs – biochemical, luminescence, set 2, SAR follow-up (AID 588647)
recordedConditions: purified mouse IAP, luminescent substrate read-out
Active and inactive are the calls of the source. No rule for the calls is given here.
// classify into 1.0 = active, 0.0 = inactive

>>> class("O=c1[nH]c2ccc(S(=O)(=O)NCCc3ccc4c(c3)OCO4)cc2o1")
0.0
>>> class("O=C(N/N=C/c1ccccc1C(F)(F)F)c1cc(O)c(O)c(O)c1")
1.0
>>> class("Cc1ccccc1CNC(=O)C1CCCN(S(=O)(=O)c2ccc3[nH]c(=O)oc3c2)C1 (centres undefined)")
0.0

Query block: Which outcome was entered for the molecule O=C(CCNS(=O)(=O)c1ccc2[nH]c(=O)oc2c1)NCc1ccc(O)c(O)c1 in this test?
Result block: 1.0
